Measured On: T1, recombinant rat Aggrecan G1-IGD-G2 (rat, UniProt P07897 20-684, limits assumed)
T1 construct: also called Rat G1-IGD-G2
Protocol Details: periplasmic extract ELISA
Readout Type: OD 450 nm (OD 450 nm)
The reply should contain only the number, in OD 450 nm.

Q. Name the reported OD 450 nm value associated with the binder C0101PMP601D02 (VHH, Tested as E. coli periplasmic extract; not shown: FLAG3 and His6 tags (phagemid pAX212)) VHH: DVQLVESGGGLVQPGGSLRLSCAASGPTFSRYAMGWFRQAPGKEREFVAAITWSSGGRTYYADSVKGRFTISRDNSKNTVYLQMNSLRPEDTAVYYCAAARIPVRTYTSEWNYWGQGTLVTVSS
A. 2.59

Q. Name the reported OD 450 nm value associated with the binder C0101PMP604G01 (VHH, Tested as E. coli periplasmic extract; not shown: FLAG3 and His6 tags (phagemid pAX212)) VHH: DVQLVESGGGLVQPGGSLRLSCAASGRTFSSYTMGWFRQAPGKEREFVAAISWSGRTTYYADSVKGRFTISRDNSKNTVYLQMNSLRPEDTAVYYCAAYRRVRYTNLEVWDYWGQGTLVTVSS
A. 0.6

Q. Name the reported OD 450 nm value associated with the binder C0101PMP606A07 (VHH, Tested as E. coli periplasmic extract; not shown: FLAG3 and His6 tags (phagemid pAX212)) VHH: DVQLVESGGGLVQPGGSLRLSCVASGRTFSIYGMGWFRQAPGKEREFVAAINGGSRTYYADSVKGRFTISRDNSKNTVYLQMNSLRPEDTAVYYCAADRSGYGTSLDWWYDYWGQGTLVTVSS
A. 2.31

Q. Name the reported OD 450 nm value associated with the binder C0101PMP112A03 (VHH, Tested as E. coli periplasmic extract; not shown: FLAG3 and His6 tags (phagemid pAX212)) VHH: EVQLVESGGGLVQPGGSLRLSCAASGSIFSNRFMYWYRQAPGKQRELVASITLSGSTNYADSVKGRFTISRDNAKNTVYLQMNSLKPEDTAVYYCNTFLQNSFYWGQGTQVTVSS
A. 1.69

Q. Name the reported OD 450 nm value associated with the binder C0101PMP117G09 (VHH, Tested as E. coli periplasmic extract; not shown: FLAG3 and His6 tags (phagemid pAX212)) VHH: EVQLVESGGGSALPGGSLRLSCAASGITFSSRYMRWYRQAPGRQRELVAAISSGGRTDYVDSVRGRFTLSINNAKNTVYLQMNDLKPEDTAVYYCYRPRMYVDGTYEKELWGQGTLVTVSS
A. 2.29

Q. Name the reported OD 450 nm value associated with the binder C0101PMP112A01 (VHH, Tested as E. coli periplasmic extract; not shown: FLAG3 and His6 tags (phagemid pAX212)) VHH: EVQLVESGGGLVQTGGSLRLSCVASGRAFSNYIMGWFRQAPGKERDFVAAINWNGVTTHYTDSVKGRFTISRDNAKSTSYLQMDSLKPDDTAVYFCAARGTVYSRTYGVSEEGYMYWGQGTQVTVSS
A. 2.03

Q. Name the reported OD 450 nm value associated with the binder C0101PMP601E09 (VHH, Tested as E. coli periplasmic extract; not shown: FLAG3 and His6 tags (phagemid pAX212)) VHH: DVQLVESGGGLVQPGGSLRLSCAASGLTFSTYAMGWFRQAPGKEREFVAAISWSGSRTYYADSVKGRFTISRDNSKNTVYLQMNSLRPEDTAVYYCAAYRRPRYSPTGTWDYWGQGTLVTVSS
A. 2.61

Q. Name the reported OD 450 nm value associated with the binder C0101PMP608A05 (VHH, Tested as E. coli periplasmic extract; not shown: FLAG3 and His6 tags (phagemid pAX212)) VHH: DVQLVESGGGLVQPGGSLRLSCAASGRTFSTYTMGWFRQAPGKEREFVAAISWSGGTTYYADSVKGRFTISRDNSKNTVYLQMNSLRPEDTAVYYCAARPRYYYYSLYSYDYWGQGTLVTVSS
A. 2.39
